Numbers sourced from a melting point compilation (Tetko et al.; mined from patent text by program, amines drawn as free bases though some values may be those of a salt).

QUANTITY MEASURED: melting point

[[record]]
smiles_structure = "CC(C)(C)c1ccc(S(=O)(=O)N2c3ccccc3C[C@H]2C(=O)NCc2cccc(OCCC(=O)O)c2)cc1"
quantity_measured = "melting point"
value_measured = "122 °C"

[[record]]
smiles_structure = "CC(=O)OCC(=O)c1cc2c(s1)SCCc1cc(=O)n(-c3ccc(Cl)cc3)nc1-2"
quantity_measured = "melting point"
value_measured = "172 to 174 °C"


// below: melting point requested for another compound
// melting point lookup, compound = `CCCc1c(OCCCCCCc2ccc(OCCCC(=O)O)cc2/C=C/C(=O)O)ccc2c1OCCC2=O` , result: 140 to 143 °C

----------
QUANTITY MEASURED: melting point

[[record]]
molecule = "CC(=O)CCC(=O)N1CC1C#N (stereo not given)"
quantity_measured = "melting point"
value_measured = "93 to 94 °C"

[[record]]
molecule = "CC1(C(=O)c2c[nH]c3ncc(-c4cccc(CCCO)c4)nc23)CCCCC1"
quantity_measured = "melting point"
value_measured = "80 to 83 °C"

[[record]]
molecule = "COc1ccc2c(c1)c(Cc1nc(-c3ccc(Br)cc3)cs1)c(C)n2C(=O)c1ccc(Cl)cc1"
quantity_measured = "melting point"
value_measured = "177 to 180 °C"


For each of the items listed, what is its melting point?
1. CC(C)(CO)NC(=O)c1n[nH]cc1NC(=O)c1ccccn1
2. O=CNNc1ccc(NC(=S)NC2CCCCC2)cc1

OUT:
193 to 195 °C
158 to 160 °C

----------
Assign melting point to each entry below.

Give melting point for all molecules that follow.
1. CC1(C)OC(=O)Nc2ccc(-c3cc(C#N)cc(OC(F)(F)F)c3)cc21
2. O=c1[nH]c2ccccc2cc1CN1CC=C(/C=C/c2ccccc2)CC1

OUT:
["227 to 228 °C", "258 to 260 °C"]

Quick one: give me melting point for each item below, same order please.
1. N#Cc1cnc2sc(C(=O)O)cc2c1Nc1ccc2[nH]ccc2c1
2. CNC1C(O)CC2C3CCC4CC(O)CCC4(C)C3CCC21C (stereo not drawn)
3. COc1ccc(-c2cccc3nc(Nc4cc(OC)c(OC)c(OC)c4)oc23)cc1
4. CC(=O)OC1CSC(Oc2cc(C)c(-c3cccnc3)c(C)c2)C(OC(C)=O)C1OC(C)=O (stereo not drawn)

OUT:
["> 250 °C", "241 to 253 °C", "179 to 182 °C", "75 to 80 °C"]

Please give melting point for each item listed below.
1. CCN1c2ncc(CCc3cccc(N)c3)cc2C(=O)N(C)c2ccc(Cl)nc21
2. CON=C(C(=O)OC)c1ccccc1C#CC(=O)c1ccccc1
3. COc1ccc(-n2ccc3ccccc32)cc1
4. COc1ccc(C(=O)Nc2ccccc2)cc1NS(=O)(=O)c1cccc([N+](=O)[O-])c1
5. NC(=S)C(CN1CCOCC1)c1ccccn1 (stereo not drawn)
6. CCc1ccc2c(c1)C=Cc1ccccc1C2c1cn(Cc2ccc(C(=O)O)o2)c(=O)[nH]c1=O (stereo not drawn)
7. COC(=O)/C(=C/C=C/c1cc2ccccc2n1C)OC

OUT:
121 to 123 °C
89 to 94 °C
52 to 54 °C
208 to 210 °C
102 to 104 °C
178 to 180 °C
93 to 94 °C
